Assay: Half life in Sprague-Dawley rat at 2.5 to 5 mg/kg, iv
Format: ADME, organism-based
Design: dose 2.5-5 mg/kg, route intravenous
Settings: in vivo
Value kind: half-life (min)
The answer is to be given in min; state only the numeric part.

Query: Could you tell me which half-life is on file for `Nc1ccccc1NC(=O)c1ccc(CNc2nccc(-c3cccnc3)n2)cc1` ?
Result: 42

====

Test: Clearance in Sprague-Dawley rat at 2.5 to 5 mg/kg, iv and 2.5 to 50 mg/kg, po
Type: ADME, organism-based
Conditions: in vivo
Value kind: clearance (mL/min/kg)
Give just the numeric value; mL/min/kg need not be written.

Query: Would you kindly share the measured clearance for `Nc1ccccc1NC(=O)c1ccc(CNc2nccc(-c3cccnc3)n2)cc1` ?
Result: 28.3

The values you see were collected from ChEMBL document CHEMBL1155041.
